Test system: 845751-090-R-J2-PDC tumor spheroid viability;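 note: spheroids exposed to compounds for 7 days before readout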
Assay: Anticancer human tumor 845751-090-R-J2-PDC patient-derived head and neck squamous carcinoma cell line growth inhibition [IpAb]
Details: curve of first compound; second compound 0.316 µM; spheroids with HUVEC and MSC
Output t for records whose IC50 is lower than 200 nM, f for records at or above 200 nM.

Q: I wonder whether CCCS(=O)(=O)Nc1ccc(F)c(C(=O)c2c[nH]c3ncc(-c4ccc(Cl)cc4)cc23)c1F + CCN1CCN(Cc2ccc(Nc3ncc(F)c(-c4cc(F)c5nc(C)n(C(C)C)c5c4)n3)nc2)CC1 has IC50 below 200 nM. Can you tell?
Ans: f

Q: I wonder whether CC(C)n1nc(-c2ccc3oc(N)nc3c2)c2c(N)ncnc21 + CC(C)NCC(C(=O)N1CCN(c2ncnc3c2C(C)CC3O)CC1)c1ccc(Cl)cc1 has IC50 below 200 nM. Can you tell?
Ans: t

Q: I wonder whether Cn1nccc1Nc1nccc(-c2ccn(C(CO)c3ccc(Cl)c(F)c3)c(=O)c2)n1 (stereo unspecified) + CC(C)NCC(C(=O)N1CCN(c2ncnc3c2C(C)CC3O)CC1)c1ccc(Cl)cc1 has IC50 below 200 nM. Can you tell?
Ans: t

Q: I wonder whether CC(C)n1nc(-c2ccc3oc(N)nc3c2)c2c(N)ncnc21 + CCN1CCN(Cc2ccc(Nc3ncc(F)c(-c4cc(F)c5nc(C)n(C(C)C)c5c4)n3)nc2)CC1 has IC50 below 200 nM. Can you tell?
Ans: t

Q: I wonder whether Cc1nc(NC(=O)N2CCCC2C(N)=O)sc1-c1ccnc(C(C)(C)C(F)(F)F)c1 (stereo unspecified) + CC(C)NCC(C(=O)N1CCN(c2ncnc3c2C(C)CC3O)CC1)c1ccc(Cl)cc1 has IC50 below 200 nM. Can you tell?
Ans: t

Q: I wonder whether COc1c(OCCCN2CCOCC2)ccc2c3n(c(=NC(=O)c4cnc(N)nc4)nc12)CCN3 + CCN1CCN(Cc2ccc(Nc3ncc(F)c(-c4cc(F)c5nc(C)n(C(C)C)c5c4)n3)nc2)CC1 has IC50 below 200 nM. Can you tell?
Ans: t

Q: I wonder whether C=CCn1c(=O)c2cnc(Nc3ccc(N4CCN(C)CC4)cc3)nc2n1-c1cccc(C(C)(C)O)n1 + CCN1CCN(Cc2ccc(Nc3ncc(F)c(-c4cc(F)c5nc(C)n(C(C)C)c5c4)n3)nc2)CC1 has IC50 below 200 nM. Can you tell?
Ans: f

Q: I wonder whether CC1(C)CCC(CN2CCN(c3ccc(C(=O)NS(=O)(=O)c4ccc(NCC5CCOCC5)c([N+](=O)[O-])c4)c(Oc4cnc5[nH]ccc5c4)c3)CC2)=C(c2ccc(Cl)cc2)C1 + CC(C)NCC(C(=O)N1CCN(c2ncnc3c2C(C)CC3O)CC1)c1ccc(Cl)cc1 has IC50 below 200 nM. Can you tell?
Ans: t

Q: I wonder whether CCCS(=O)(=O)Nc1ccc(F)c(C(=O)c2c[nH]c3ncc(-c4ccc(Cl)cc4)cc23)c1F + CC(C)NCC(C(=O)N1CCN(c2ncnc3c2C(C)CC3O)CC1)c1ccc(Cl)cc1 has IC50 below 200 nM. Can you tell?
Ans: t

Q: I wonder whether Cn1cnc2c(F)c(Nc3ccc(Br)cc3Cl)c(C(=O)NOCCO)cc21 + CCN1CCN(Cc2ccc(Nc3ncc(F)c(-c4cc(F)c5nc(C)n(C(C)C)c5c4)n3)nc2)CC1 has IC50 below 200 nM. Can you tell?
Ans: f

Q: I wonder whether Cc1nc(NC(=O)N2CCCC2C(N)=O)sc1-c1ccnc(C(C)(C)C(F)(F)F)c1 (stereo unspecified) + CCN1CCN(Cc2ccc(Nc3ncc(F)c(-c4cc(F)c5nc(C)n(C(C)C)c5c4)n3)nc2)CC1 has IC50 below 200 nM. Can you tell?
Ans: t

Ref: PubChem BioAssay AID2060333
